# assay.setup: rat, in vivo, sc, 1 mg/kg
Bridge positions count the residues as written; N and C are the ends. Square brackets hold non-standard residues; d marks the D form. Peptide text beside a SMILES is read from it. * marks the point of attachment. Piperazin2one(3S-Bu,6R-CO) = CCCC[C@@H]1NC[C@H](C(=O)*)NC1=O; X1 = N=C(N)NCCC[C@H]1C(=O)N[C@@H](C(N)=O)CN1*; Heptanoyl = CCCCCCC(=O)*; Nle = CCCC[C@H](N)C(=O)O
Below, each of the compounds is paired with its reported Cmax value.

- compound: "CCCCCCC(=O)N[C@H]1CSSC[C@@H](C(=O)N[C@@H](Cc2ccc(O)cc2)C(=O)N2C[C@H](C(N)=O)NC(=O)[C@@H]2CCCNC(=N)N)NC(=O)[C@H](CO)NC(=O)[C@H]([C@@H](C)CC)NC(=O)[C@H](CCCNC(=N)N)NC(=O)[C@H](CC(=O)O)NC(=O)[C@H](CCCC)NC(=O)[C@H](CCCNC(=N)N)NC(=O)CNC(=O)CNC(=O)[C@H](Cc2ccccc2)NC(=O)[C@H](Cc2c[nH]cn2)NC1=O [1-63] (Heptanoyl-CHFGGR[Nle]DRISCY-X1; disulfide 1-12)"
  unit.name: "nM"
  Cmax: 26
- compound: "CCCC[C@@H]1NC[C@H](C(=O)N[C@H]2CSSC[C@@H](C(=O)N[C@@H](Cc3ccc(O)cc3)C(=O)N3C[C@H](C(N)=O)NC(=O)[C@@H]3CCCNC(=N)N)NC(=O)[C@H](CO)NC(=O)[C@H]([C@@H](C)CC)NC(=O)[C@H](CCCNC(=N)N)NC(=O)[C@H](CC(=O)O)NC(=O)[C@H](CCCC)NC(=O)[C@H](CCCNC(=N)N)NC(=O)CNC(=O)CNC(=O)[C@H](Cc3ccccc3)NC(=O)[C@H](Cc3c[nH]cn3)NC2=O)NC1=O [1-18] ({Piperazin2one(3S-Bu,6R-CO)}-CHFGGR[Nle]DRISCY-X1; disulfide 1-12)"
  unit.name: "nM"
  Cmax: 85
